Taken from patent US12187709B2.

# SYSTEM_TESTED: Cbl-b (Homo sapiens (Human), UniProt Q13191)
# TEST: Cbl-b LCK Ub TR-FRET assay (Cbl-b Lck HTRF)
# Assay type: biochemical
# CONDITIONS_USED: ratio C-cbl Lck HTRF IC50 / Cbl-b Lck HTRF IC50
Label Y for high-side fold-selectivity (Cbl-b over C-cbl) (at or above 3 x) and N for low-side fold-selectivity (Cbl-b over C-cbl) (below it).

Use these answered entries as a reference point.
{"COMPOUND": "CC(=O)C1CC([C@@H](c2cccc(N3Cc4c(cc(CNC5(C)CCC5)cc4C(F)(F)F)C3=O)c2)c2nncn2C)C1 (single isomer, unassigned) [Compound 384]", "LABEL_CLASS": "N"}
{"COMPOUND": "Cn1cnnc1[C@]1(c2cc(NC3CCCC3)cc(N3Cc4c(cc(CNC5(C)CCC5)cc4C(F)(F)F)C3=O)c2)C[C@H](C)C1 [Compound 177]", "LABEL_CLASS": "N"}
{"COMPOUND": "CO[C@H]1C[C@](c2cccc(N3Cc4c(cc([C@@H](N)C(C)(C)C)cc4C(F)(F)F)C3=O)c2)(c2nncn2C)C1 (single isomer, unassigned) [Compound 361]", "LABEL_CLASS": "Y"}
{"COMPOUND": "Cn1ccnc1[C@H](c1cccc(N2Cc3c(cc(CNC4(C)CCC4)cc3C(F)(F)F)C2=O)c1)C1COC1 (single isomer, unassigned) [Compound 353]", "LABEL_CLASS": "N"}
{"COMPOUND": "CC(=O)[C@H]1C[C@@](c2cccc(N3Cc4c(cc(CNC5(C)CCC5)cc4C(F)(F)F)C3=O)c2)(c2nncn2C)C1 [Compound 346]", "LABEL_CLASS": "Y"}

Then there is this compound:
Query :: Answer whether fold-selectivity (Cbl-b over C-cbl) of Cn1cnnc1[C@@H](CC1COC1)c1cccc(N2Cc3c(cc(CNC4(C)CCC4)cc3C(F)(F)F)C2=O)c1 [Compound 244] is greater than or equal to 3 x.
Result :: N

* * *

Fold of selectivity: recorded values
# SYSTEM_TESTED: Human Cbl-b (residues 40-426) (Homo sapiens (Human))
# Sequence (Q13191 40-426): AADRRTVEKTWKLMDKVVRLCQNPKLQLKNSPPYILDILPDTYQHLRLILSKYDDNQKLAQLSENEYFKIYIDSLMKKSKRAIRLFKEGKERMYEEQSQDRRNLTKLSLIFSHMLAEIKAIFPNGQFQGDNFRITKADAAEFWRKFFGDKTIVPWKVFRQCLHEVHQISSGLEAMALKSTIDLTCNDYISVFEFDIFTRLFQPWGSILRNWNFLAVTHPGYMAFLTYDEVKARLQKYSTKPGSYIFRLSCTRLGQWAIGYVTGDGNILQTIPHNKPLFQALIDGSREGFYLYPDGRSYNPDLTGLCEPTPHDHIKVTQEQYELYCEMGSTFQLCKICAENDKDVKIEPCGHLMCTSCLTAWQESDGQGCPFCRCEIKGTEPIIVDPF
# TEST: Cbl-b SPR assay
# Assay type: binding
# CONDITIONS_USED: C-cbl SPR Kd vs Cbl-b SPR Kd
Please format your answer as a value with the unit trailing.

Answered cases to consult:
{"COMPOUND": "C[C@@H](NC1(C)CCC1)c1cc2c(c(C(F)(F)F)c1)CN(c1cccc(C3(c4nncn4C)CC(F)(F)C3)c1)C2=O (single isomer, unassigned)", "Fold of selectivity": "2.8×"}
{"COMPOUND": "CS[C@H]1C[C@](c2cccc(N3Cc4c(cc(CNC5(C)CCC5)cc4C(F)(F)F)C3=O)c2)(c2nncn2C)C1", "Fold of selectivity": "12×"}
{"COMPOUND": "CCNc1cc([C@]2(c3nncn3C)C[C@@H](C)C2)cc(N2Cc3c(cc(CNC4(C)CCC4)cc3C(F)F)C2=O)n1", "Fold of selectivity": "2.0×"}

Query :: Need Fold of selectivity of Cn1cnnc1[C@@H](c1cccc(N2Cc3c(cc(CNC4(C)CCC4)cc3C(F)(F)F)C2=O)c1)C1CC(F)C1 (single isomer, unassigned) [Compound 130] , thanks.
Result :: 5.3×

Query :: Need Fold of selectivity of CO[C@H]1C[C@@H]([C@@H](c2cccc(N3Cc4c(cc(CN5CCN(C)C[C@@H]5C(C)C)cc4C(F)(F)F)C3=O)c2)c2nncn2C)C1 (single isomer, unassigned) [Compound 14] , thanks.
Result :: 8.8×

Query :: Need Fold of selectivity of `Cn1cnnc1[C@]1(c2cccc(N3Cc4c(cc(CNC5(C)CCC5)cc4C(F)(F)F)C3=O)c2)C[C@@](O)(C(F)F)C1` , thanks.
Result :: 7.7×
